Origin of the recorded values: paper PMC7774954

Target: LAP2-1 (Homo sapiens, UniProt Q96RT1)
Sequence (Q96RT1 1321-1410): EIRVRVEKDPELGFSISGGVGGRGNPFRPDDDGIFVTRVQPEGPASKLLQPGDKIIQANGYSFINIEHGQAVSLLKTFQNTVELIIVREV
Experiment: Holdup assay, LAP2-1
Assay type: binding
*1 amine or outer side, *2 acyl side, *3 side chain or, on linkers, in order; H or OH if unused. Where a SMILES comes first, the peptide text is derived from it. The star is where a group is joined. X1 = O=C(CCCC[C@@H]1SC[C@@H]2NC(=O)N[C@@H]21)NCCCOCCOCCOCCCN*; Suc = O=C(CCC(=O)[*:2])[*:1]
PARAMETER: BI

Completed entries (count: 2):
- CC[C@H](C)[C@H](NC(=O)[C@H](CCC(N)=O)NC(=O)[C@@H](NC(=O)[C@H](Cc1c[nH]cn1)NC(=O)[C@H](CCC(N)=O)NC(=O)[C@H](CC(=O)O)NC(=O)[C@H](CCC(=O)O)NC(=O)[C@H](CC(=O)O)NC(=O)CCC(=O)NCCCOCCOCCOCCCNC(=O)CCCC[C@@H]1SC[C@@H]2NC(=O)N[C@@H]21)[C@@H](C)O)C(=O)N[C@H](C(=O)N[C@@H](CCCNC(=N)N)C(=O)N[C@H](C(=O)O)C(C)C)[C@@H](C)O [PTEN_KR] ({X1-Suc}-DEDQHTQITRV-OH): 0.205
- CC[C@H](C)[C@H](NC(=O)[C@H](CCC(N)=O)NC(=O)[C@@H](NC(=O)[C@H](Cc1c[nH]cn1)NC(=O)[C@H](CCC(N)=O)NC(=O)[C@H](CC(=O)O)NC(=O)[C@H](CCC(=O)O)NC(=O)[C@H](CC(=O)O)NC(=O)[C@H](Cc1ccccc1)NC(=O)[C@@H]1CCCN1C(=O)CCC(=O)NCCCOCCOCCOCCCNC(=O)CCCC[C@@H]1SC[C@@H]2NC(=O)N[C@@H]21)[C@@H](C)O)C(=O)N[C@H](C(=O)N[C@@H](CCCCN)C(=O)N[C@H](C(=O)O)C(C)C)[C@@H](C)O [PTEN_13] ({X1-Suc}-PFDEDQHTQITKV-OH): 0.172

Would you kindly look at the next entry?
Query block: For CC[C@H](C)[C@H](NC(=O)[C@H](CCC(N)=O)NC(=O)[C@@H](NC(=O)[C@H](Cc1c[nH]cn1)NC(=O)[C@H](CCC(N)=O)NC(=O)[C@H](CC(=O)O)NC(=O)[C@H](CCC(=O)O)NC(=O)[C@H](CC(=O)O)NC(=O)CCC(=O)NCCCOCCOCCOCCCNC(=O)CCCC[C@@H]1SC[C@@H]2NC(=O)N[C@@H]21)[C@@H](C)O)C(=O)N[C@H](C(=O)N[C@@H](CCCCNC(C)=O)C(=O)N[C@H](C(=O)O)C(C)C)[C@@H](C)O , what is its reported BI?
Result block: 0.214
